Data credit: patent US20240391954A1

For each of the binders below, state its % max activation.
- subject of test: human MC4R receptor (human, UniProt P32245 1-332)
- Sequence (P32245 whole entry): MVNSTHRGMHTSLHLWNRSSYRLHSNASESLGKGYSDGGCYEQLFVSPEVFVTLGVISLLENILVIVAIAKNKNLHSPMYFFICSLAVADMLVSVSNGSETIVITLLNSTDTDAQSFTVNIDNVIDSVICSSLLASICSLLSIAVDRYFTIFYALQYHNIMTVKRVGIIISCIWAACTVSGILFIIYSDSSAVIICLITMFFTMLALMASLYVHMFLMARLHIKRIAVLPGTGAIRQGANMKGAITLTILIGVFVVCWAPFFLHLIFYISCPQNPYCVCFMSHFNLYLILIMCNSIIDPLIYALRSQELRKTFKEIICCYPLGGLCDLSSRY
- assay remarks: cell-based or functional assay
Positions of bridges follow the written chain, without caps; N, C: chain ends. Non-standard residues stand in square brackets, D forms with d. 2Pal = N[C@@H](Cc1ccccn1)C(=O)O; Cit = NC(=O)NCCC[C@H](N)C(=O)O; Nle = CCCC[C@H](N)C(=O)O; Orn = NCCC[C@H](N)C(=O)O; Aib = CC(C)(N)C(=O)O
One number for each entry, in %.

Solved cases below.
Ac-R[Nle]CH[dF]RFC-NH2 (disulfide 3-8; SMILES CCCC[C@H](NC(=O)[C@H](CCCNC(=N)N)NC(C)=O)C(=O)N[C@H]1CSSC[C@@H](C(N)=O)NC(=O)[C@H](Cc2ccccc2)NC(=O)[C@H](CCCNC(=N)N)NC(=O)[C@@H](Cc2ccccc2)NC(=O)[C@H](Cc2c[nH]cn2)NC1=O) [CTX-1625] | 101
Ac-R[Nle]C[2Pal][dF]RWC-NH2 (disulfide 3-8; SMILES CCCC[C@H](NC(=O)[C@H](CCCNC(=N)N)NC(C)=O)C(=O)N[C@H]1CSSC[C@@H](C(N)=O)NC(=O)[C@H](Cc2c[nH]c3ccccc23)NC(=O)[C@H](CCCNC(=N)N)NC(=O)[C@@H](Cc2ccccc2)NC(=O)[C@H](Cc2ccccn2)NC1=O) [CTX-1619] | 99
Ac-RCAR[dF]R[dW]C-NH2 (disulfide 2-8) [CTX-1268] | 96
Ac-R[Nle]C[Orn][dF]RWC-NH2 (disulfide 3-8; SMILES CCCC[C@H](NC(=O)[C@H](CCCNC(=N)N)NC(C)=O)C(=O)N[C@H]1CSSC[C@@H](C(N)=O)NC(=O)[C@H](Cc2c[nH]c3ccccc23)NC(=O)[C@H](CCCNC(=N)N)NC(=O)[C@@H](Cc2ccccc2)NC(=O)[C@H](CCCN)NC1=O) [CTX-1617] | 102
Ac-C[Aib][Cit][dF]RFC-NH2 (disulfide 1-7; SMILES CC(=O)N[C@H]1CSSC[C@@H](C(N)=O)NC(=O)[C@H](Cc2ccccc2)NC(=O)[C@H](CCCNC(=N)N)NC(=O)[C@@H](Cc2ccccc2)NC(=O)[C@H](CCCNC(N)=O)NC(=O)C(C)(C)NC1=O) [CTX-1636] | 102

Need % max activation for each of these binders.
1. Ac-RC[dA]R[dF][Cit][dW]C-NH2 (disulfide 2-8) [CTX-1281]
2. Ac-R[Nle]C[Cit][dF]R[dW]C-NH2 (disulfide 3-8; SMILES CCCC[C@H](NC(=O)[C@H](CCCNC(=N)N)NC(C)=O)C(=O)N[C@H]1CSSC[C@@H](C(N)=O)NC(=O)[C@@H](Cc2c[nH]c3ccccc23)NC(=O)[C@H](CCCNC(=N)N)NC(=O)[C@@H](Cc2ccccc2)NC(=O)[C@H](CCCNC(N)=O)NC1=O) [CTX-1608]

Solution:
1: 92; 2: 79
